Source of measurements: ChEMBL document CHEMBL5338752

experiment: AUClast in sixteen hrs fasted Sprague-Dawley rat at 3 mg/kg, po measured upto 24 hrs by LC-MS/MS analysis; assay type: ADME, organism-based; set-up: dose 3 mg/kg, time < 24 hrs, route po; conditions: in vivo
AUC(0-t) at 24 h by entry:
property.label: AUC(0-t) at 24 h

[[record]]
record_smiles = "CNC(=O)Oc1cc(F)c2nc(-c3ccc4ccccc4c3)n(-c3ccnc(N[C@H]4CCCN(C(=O)C5CC5)C4)n3)c2c1"
measured_result = "727 ng·h/mL"

[[record]]
record_smiles = "CNC(=O)Oc1ccc2nc(-c3ccc4ccccc4c3)n(-c3ccnc(N[C@H]4CCCN(C(=O)C5CC5)C4)n3)c2c1"
measured_result = "351 ng·h/mL"


----------
Papp A→B by entry:
assay: Apparent permeability of the compound across apical side to basolateral side in human Caco-2 cells; format: ADME, cell-based
property.label: Papp A→B (×10⁻⁶ cm/s)

[[record]]
record_smiles = "CNC(=O)Oc1ccc2nc(-c3ccc4ccccc4c3)n(-c3ccnc(N[C@H]4CCCN(C(=O)C5CC5)C4)n3)c2c1"
measured_result = 4.9

[[record]]
record_smiles = "CNC(=O)Oc1cc(F)c2nc(-c3ccc4ccccc4c3)n(-c3ccnc(N[C@H]4CCCN(C(=O)C5CC5)C4)n3)c2c1"
measured_result = 1.7


----------
Papp by entry:
assay: Effective permeability of compound by […] method; format: ADME; conditions: read-out: Peff
property.label: Papp (×10⁻⁶ cm/s)

[[record]]
record_smiles = "CNC(=O)Oc1ccc2nc(-c3ccc4ccccc4c3)n(-c3ccnc(N[C@H]4CCCN(C(=O)C5CC5)C4)n3)c2c1"
unit_descriptor = "×10⁻⁶ cm/s"
measured_result = 67.2

[[record]]
record_smiles = "O=C(C1CC1)N1CCC[C@H](Nc2nccc(-n3c(-c4ccc5ccccc5c4)nc4c(F)cc(O)cc43)n2)C1"
unit_descriptor = "×10⁻⁶ cm/s"
measured_result = 22.9

[[record]]
record_smiles = "O=C(C1CC1)N1CCC[C@H](Nc2nccc(-n3c(-c4ccc5ccccc5c4)nc4ccc(O)cc43)n2)C1"
unit_descriptor = "×10⁻⁶ cm/s"
measured_result = 35.1

[[record]]
record_smiles = "CC(=O)[C@H]1CC[C@H]2[C@@H]3CCC4=CC(=O)CC[C@]4(C)[C@H]3CC[C@]12C"
unit_descriptor = "×10⁻⁶ cm/s"
measured_result = 26.5

[[record]]
record_smiles = "CNC(=O)Oc1cc(F)c2nc(-c3ccc4ccccc4c3)n(-c3ccnc(N[C@H]4CCCN(C(=O)C5CC5)C4)n3)c2c1"
unit_descriptor = "×10⁻⁶ cm/s"
measured_result = 55.8


----------
biological target: Mitogen-activated protein kinase 9 (Homo sapiens, UniProt P45984); assay: Inhibition of JNK2 (unknown origin) using ATF2 as substrate incubated for 40 mins in presence of [gamma33P]ATP by scintillation counting analysis
Sequence (P45984 whole entry): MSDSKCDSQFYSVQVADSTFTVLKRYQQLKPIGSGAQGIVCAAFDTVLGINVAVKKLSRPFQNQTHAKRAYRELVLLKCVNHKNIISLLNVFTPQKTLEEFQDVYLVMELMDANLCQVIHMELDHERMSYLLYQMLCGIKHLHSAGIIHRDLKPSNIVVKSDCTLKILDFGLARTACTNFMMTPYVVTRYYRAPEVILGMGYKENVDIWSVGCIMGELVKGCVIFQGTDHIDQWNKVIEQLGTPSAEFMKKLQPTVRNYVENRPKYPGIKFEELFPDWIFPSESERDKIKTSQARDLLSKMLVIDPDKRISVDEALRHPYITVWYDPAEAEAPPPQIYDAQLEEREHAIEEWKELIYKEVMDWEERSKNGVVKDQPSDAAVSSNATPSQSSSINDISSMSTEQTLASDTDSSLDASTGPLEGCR
pIC50: −log10 of the molar value.
property.label: pIC50

[[record]]
record_smiles = "CNC(=O)Oc1ccc2nc(-c3ccc4ccccc4c3)n(-c3ccnc(N[C@H]4CCCN(C(=O)C5CC5)C4)n3)c2c1"
property_label = "pIC50"
measured_result = 6.01

[[record]]
record_smiles = "CNC(=O)Oc1cc(F)c2nc(-c3ccc4ccccc4c3)n(-c3ccnc(N[C@H]4CCCN(C(=O)C5CC5)C4)n3)c2c1"
property_label = "pIC50"
measured_result = 5.66

[[record]]
record_smiles = "O=C(C1CC1)N1CCC[C@H](Nc2nccc(-n3c(-c4ccc5ccccc5c4)nc4c(F)cc(O)cc43)n2)C1"
property_label = "pIC50"
measured_result = 6.82

[[record]]
record_smiles = "O=C(C1CC1)N1CCC[C@H](Nc2nccc(-n3c(-c4ccc5ccccc5c4)nc4ccc(O)cc43)n2)C1"
property_label = "pIC50"
measured_result = 6.90


----------
molecular target: Mitogen-activated protein kinase 8 (Homo sapiens, UniProt P45983); experiment: Inhibition of JNK1 (unknown origin) using ATF2 as substrate incubated for 40 mins in presence of [gamma33P]ATP by scintillation counting analysis
Sequence (P45983 whole entry): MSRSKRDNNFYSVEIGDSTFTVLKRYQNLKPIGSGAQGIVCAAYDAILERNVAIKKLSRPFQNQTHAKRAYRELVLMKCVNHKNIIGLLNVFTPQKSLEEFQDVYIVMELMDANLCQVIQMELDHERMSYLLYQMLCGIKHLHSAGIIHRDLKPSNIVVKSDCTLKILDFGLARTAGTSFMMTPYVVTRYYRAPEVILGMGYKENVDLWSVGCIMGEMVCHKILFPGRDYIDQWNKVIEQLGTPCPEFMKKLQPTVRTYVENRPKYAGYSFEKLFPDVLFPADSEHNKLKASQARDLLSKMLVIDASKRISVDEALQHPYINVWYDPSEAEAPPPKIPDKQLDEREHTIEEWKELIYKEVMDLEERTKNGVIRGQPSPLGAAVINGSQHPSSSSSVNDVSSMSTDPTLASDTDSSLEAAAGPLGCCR
pIC50: −log10 of the molar value.
pIC50 by entry:
property.label: pIC50

[[record]]
record_smiles = "O=C(C1CC1)N1CCC[C@H](Nc2nccc(-n3c(-c4ccc5ccccc5c4)nc4ccc(O)cc43)n2)C1"
sign = "="
measured_result = 6.52

[[record]]
record_smiles = "CNC(=O)Oc1ccc2nc(-c3ccc4ccccc4c3)n(-c3ccnc(N[C@H]4CCCN(C(=O)C5CC5)C4)n3)c2c1"
sign = "="
measured_result = 5.98

[[record]]
record_smiles = "O=C(C1CC1)N1CCC[C@H](Nc2nccc(-n3c(-c4ccc5ccccc5c4)nc4c(F)cc(O)cc43)n2)C1"
sign = "="
measured_result = 6.15

[[record]]
record_smiles = "CNC(=O)Oc1cc(F)c2nc(-c3ccc4ccccc4c3)n(-c3ccnc(N[C@H]4CCCN(C(=O)C5CC5)C4)n3)c2c1"
sign = "<"
measured_result = 5.00


----------
assay: Cmax in sixteen hrs fasted Sprague-Dawley rat at 3 mg/kg, po measured upto 24 hrs by LC-MS/MS analysis; type: ADME, organism-based; set-up: time < 24 hrs, dose 3 mg/kg, route po; settings: in vivo
Assign Satisfied to entries whose Cmax meets or exceeds 300 ng/mL; assign Not satisfied to the rest.

[[record]]
record_smiles = "O=C(C1CC1)N1CCC[C@H](Nc2nccc(-n3c(-c4ccc5ccccc5c4)nc4c(F)cc(O)cc43)n2)C1"
assigned_category = "Satisfied"

[[record]]
record_smiles = "CNC(=O)Oc1ccc2nc(-c3ccc4ccccc4c3)n(-c3ccnc(N[C@H]4CCCN(C(=O)C5CC5)C4)n3)c2c1"
assigned_category = "Satisfied"

[[record]]
record_smiles = "CCNC(=O)Oc1ccc2nc(-c3ccc4ccccc4c3)n(-c3ccnc(N[C@H]4CCCN(C(=O)C5CC5)C4)n3)c2c1"
assigned_category = "Not satisfied"

[[record]]
record_smiles = "CN(C)C(=O)Oc1ccc2nc(-c3ccc4ccccc4c3)n(-c3ccnc(N[C@H]4CCCN(C(=O)C5CC5)C4)n3)c2c1"
assigned_category = "Satisfied"

[[record]]
record_smiles = "NC(=O)Oc1ccc2nc(-c3ccc4ccccc4c3)n(-c3ccnc(N[C@H]4CCCN(C(=O)C5CC5)C4)n3)c2c1"
assigned_category = "Not satisfied"


----------
Activity by entry:
tested on: Neuron; assay: Neuroprotective activity against rat neuron cells assessed as inhibition of Abeta(1-42)-induced cytotoxicity by measuring increase in cell viability at 20 uM incubated for 48 hrs by MTT assay relative to control; format: functional
property.label: Activity (%)

[[record]]
record_smiles = "O=C(C1CC1)N1CCC[C@H](Nc2nccc(-n3c(-c4ccc5ccccc5c4)nc4c(F)cc(O)cc43)n2)C1"
measured_result = 35.2

[[record]]
record_smiles = "CNC(=O)Oc1cc(F)c2nc(-c3ccc4ccccc4c3)n(-c3ccnc(N[C@H]4CCCN(C(=O)C5CC5)C4)n3)c2c1"
measured_result = 28.4

[[record]]
record_smiles = "CNC(=O)Oc1ccc2nc(-c3ccc4ccccc4c3)n(-c3ccnc(N[C@H]4CCCN(C(=O)C5CC5)C4)n3)c2c1"
measured_result = 17.2

[[record]]
record_smiles = "O=C(C1CC1)N1CCC[C@H](Nc2nccc(-n3c(-c4ccc5ccccc5c4)nc4ccc(O)cc43)n2)C1"
measured_result = 21.8


----------
target: Mitogen-activated protein kinase 10 (Homo sapiens, UniProt P53779); assay: Inhibition of JNK3 (unknown origin) using ATF2 as substrate incubated for 40 mins in presence of [gamma33P]ATP by scintillation counting analysis
Sequence (P53779 whole entry): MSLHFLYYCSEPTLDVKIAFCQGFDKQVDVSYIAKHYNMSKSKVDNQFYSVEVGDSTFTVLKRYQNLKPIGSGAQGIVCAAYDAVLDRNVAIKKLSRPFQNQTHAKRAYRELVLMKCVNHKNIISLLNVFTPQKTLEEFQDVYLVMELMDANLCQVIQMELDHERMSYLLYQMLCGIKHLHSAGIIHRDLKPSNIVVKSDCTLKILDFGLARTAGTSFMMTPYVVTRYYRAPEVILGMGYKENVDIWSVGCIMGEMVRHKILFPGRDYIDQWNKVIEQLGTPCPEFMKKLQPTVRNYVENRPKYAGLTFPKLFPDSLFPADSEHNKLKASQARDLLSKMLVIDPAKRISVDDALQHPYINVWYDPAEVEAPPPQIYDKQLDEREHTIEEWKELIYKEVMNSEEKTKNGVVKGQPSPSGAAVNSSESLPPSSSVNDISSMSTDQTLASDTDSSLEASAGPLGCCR
pIC50: −log10 of the molar value.
pIC50 by entry:
property.label: pIC50

[[record]]
record_smiles = "O=C(C1CC1)N1CCC[C@H](Nc2nccc(-n3c(-c4ccc5ccccc5c4)nc4c(F)cc(O)cc43)n2)C1"
measured_result = 8.00

[[record]]
record_smiles = "CNC(=O)Oc1ccc2nc(-c3ccc4ccccc4c3)n(-c3ccnc(N[C@H]4CCCN(C(=O)C5CC5)C4)n3)c2c1"
measured_result = 7.28

[[record]]
record_smiles = "CNC(=O)Oc1cc(F)c2nc(-c3ccc4ccccc4c3)n(-c3ccnc(N[C@H]4CCCN(C(=O)C5CC5)C4)n3)c2c1"
measured_result = 7.68


----------
assay: Half life in sixteen hrs fasted Sprague-Dawley rat at 3 mg/kg, po measured upto 24 hrs by LC-MS/MS analysis; type: ADME, organism-based; details: in vivo
property.label: half-life (min)

[[record]]
record_smiles = "CNC(=O)Oc1ccc2nc(-c3ccc4ccccc4c3)n(-c3ccnc(N[C@H]4CCCN(C(=O)C5CC5)C4)n3)c2c1"
property_label = "half-life"
measured_result = 39

[[record]]
record_smiles = "CNC(=O)Oc1cc(F)c2nc(-c3ccc4ccccc4c3)n(-c3ccnc(N[C@H]4CCCN(C(=O)C5CC5)C4)n3)c2c1"
property_label = "half-life"
measured_result = 58.2


----------
assay: Efflux ratio of apparent permeability across basolateral to apical side to apical to basolateral side in human Caco-2 cells; type: ADME, cell-based
property.label: efflux ratio

[[record]]
record_smiles = "CNC(=O)Oc1ccc2nc(-c3ccc4ccccc4c3)n(-c3ccnc(N[C@H]4CCCN(C(=O)C5CC5)C4)n3)c2c1"
measured_result = 2.31

[[record]]
record_smiles = "CNC(=O)Oc1cc(F)c2nc(-c3ccc4ccccc4c3)n(-c3ccnc(N[C@H]4CCCN(C(=O)C5CC5)C4)n3)c2c1"
measured_result = 14.7

